The measurements presented in this section are drawn from patent US20110319362A1.

# target.desc: STAT3 protein (Homo sapiens)
# Construct: human STAT3 protein (residues 122-722) fused to His-tag; His-tag
# Sequence (P40763 122-722): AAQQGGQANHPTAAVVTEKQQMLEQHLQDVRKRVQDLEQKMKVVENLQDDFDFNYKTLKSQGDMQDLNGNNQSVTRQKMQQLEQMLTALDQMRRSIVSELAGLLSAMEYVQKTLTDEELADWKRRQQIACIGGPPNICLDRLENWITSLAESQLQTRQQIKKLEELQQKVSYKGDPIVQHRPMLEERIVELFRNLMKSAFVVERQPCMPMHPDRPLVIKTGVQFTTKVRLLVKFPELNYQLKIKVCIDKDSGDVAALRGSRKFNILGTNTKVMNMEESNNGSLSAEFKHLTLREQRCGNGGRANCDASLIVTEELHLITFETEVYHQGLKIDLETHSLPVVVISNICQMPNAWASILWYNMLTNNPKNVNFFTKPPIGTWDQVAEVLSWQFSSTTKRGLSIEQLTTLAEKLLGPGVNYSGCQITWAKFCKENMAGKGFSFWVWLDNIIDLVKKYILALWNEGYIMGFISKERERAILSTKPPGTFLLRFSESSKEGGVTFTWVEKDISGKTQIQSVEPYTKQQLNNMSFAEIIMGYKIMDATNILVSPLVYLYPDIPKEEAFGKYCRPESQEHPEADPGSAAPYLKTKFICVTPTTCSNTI
# test.description: In vitro competitive STAT3 binding assay (fluorescence polarization)
Reported IC50 values for the following compounds.

In: For `NC(=O)CC[C@H](NC(=O)[C@@H]1CC[C@@H]2CCCC[C@H](NC(=O)[C@H](Cc3ccc(OP(=O)(O)O)cc3)NC(=O)CCc3ccccc3)C(=O)N21)C(=O)NCc1ccccc1` , what is its reported IC50?
Out: < 1 µM

Next:
In: Could you tell me which IC50 is on file for NC(=O)CC[C@H](NC(=O)[C@@H]1CCC2CCCC[C@H](NC(=O)[C@H](Cc3ccc(OP(=O)(O)O)cc3)NC(=O)OCc3ccccc3)C(=O)N21)C(=O)NCc1ccccc1 (stereo in doubt) ?
Out: < 1 µM

In: Record: COP(=O)(OC)Oc1ccc(C[C@H](N)C(=O)N[C@H]2CCCCC3CC[C@@H](C(=O)N[C@@H](C)C(=O)NCc4ccccc4)N3C2=O)cc1 (some centres unmarked)
Out: > 100 µM

In: Quick one: NC(=O)CC[C@H](NC(=O)[C@@H]1CCC2CCCC[C@H](NC(=O)c3cc4cc(CP(=O)(O)O)ccc4[nH]3)C(=O)N21)C(=O)NCc1ccccc1 (some centres unmarked)
Out: < 10 µM

In: Now consider CCCCCCCCCCCCCCCCN1CCN(CCC(=O)N[C@@H](Cc2ccc(CP(=O)(O)O)cc2)C(=O)N[C@H]2CCCCC3CC[C@@H](C(=O)N[C@@H](CCC(N)=O)C(=O)NCc4ccccc4)N3C2=O)CC1 (some centres unmarked) and answer again.
Out: > 100 µM

In: Entry CC(=O)N[C@@H](Cc1ccc(OCP(=O)(O)O)cc1)C(=O)N[C@H]1CCCCC2CC[C@@H](C(=O)N[C@@H](CCC(N)=O)C(=O)NCc3ccccc3)N2C1=O (stereo in doubt) please
Out: < 10 µM

In: Item: `CNC(=O)[C@H](CCCN)NC(=O)[C@@H]1CC[C@@H]2CCCC[C@H](NC(=O)[C@H](Cc3ccc(OP(=O)(O)O)cc3)NC(=O)OCc3ccccc3)C(=O)N21`
Out: < 10 µM

In: How about this compound: `NCCC[C@H](NC(=O)[C@@H]1CC[C@@H]2CCCC[C@H](NC(=O)[C@H](Cc3ccc(OP(=O)(O)O)cc3)NC(=O)OCc3ccccc3)C(=O)N21)C(=O)NCc1ccccc1`
Out: < 10 µM
